Experiment: NIH3T3 cell viability loss – cherry-pick, single point, cytotoxicity control for T. cruzi proliferation inhibitor project, confirmation (AID 651742);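 further: 0% = median of neutral control wells and 100% = median of positive control wells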
Settings: NIH/3T3 viability, CellTiter-Glo ATP luminescence, 90 h; at 8.35 µM
Out of some 5,600 compounds screened, about 780 (14%) were called active. Not shown: some 3% with an inconclusive outcome.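 How the source made its calls: active means mean signal decrease across replicates above about 35% based on untreated-well scatter, with enough replicates individually passing (limit read from the data); inconclusive means no rule stated though some were filed; inactive means the rest.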 These entries were drawn from the full list.
Would you mind answering with one of these outcomes? yes = active, no = inactive

{"columns": ["Structure as smiles", "Category"],
 "data": [
  ["C[C@H]1CN([C@@H](C)CO)S(=O)(=O)c2ccc(C#CC3CCCC3)cc2O[C@H]1CN(C)C(=O)Cc1ccncc1", "no"],
  ["C[C@H](CO)N1C[C@H](C)[C@@H](CN(C)S(=O)(=O)c2ccccc2F)Oc2ncc(C#Cc3ccccc3F)cc2C1=O", "yes"],
  ["Cc1ccc(S(=O)(=O)N(C)C[C@@H]2OCCCC[C@@H](C)Oc3ccc(NS(=O)(=O)c4ccc(F)cc4)cc3C(=O)N([C@H](C)CO)C[C@H]2C)cc1", "no"],
  ["COCC(=O)N1CC[C@@H]2[C@@H](CO)Nc3ccc(-c4cccc(C#N)c4)cc3[C@@H]21", "no"],
  ["C[C@H]1CN([C@@H](C)CO)C(=O)Cc2cc(NC(=O)Cc3cn(C)c4ccccc34)ccc2O[C@@H]1CN(C)Cc1ccccc1", "no"],
  ["C[C@@H]1CN([C@H](C)CO)C(=O)Cc2cc(NC(=O)c3ccncc3)ccc2O[C@H]1CN(C)Cc1ccc(-c2ccccc2)cc1", "no"],
  ["C[C@H](CO)N1C[C@H](C)[C@H](CN(C)C(=O)C2CCCCC2)Oc2ncc(C#Cc3cccc(F)c3)cc2C1=O", "no"],
  ["C[C@@H]1CN([C@H](C)CO)C(=O)Cc2cc(NC(=O)Cc3ccccc3)ccc2O[C@H]1CN(C)Cc1ccc(Oc2ccccc2)cc1", "no"],
  ["CC(=O)N1CC[C@@H]2[C@H](CO)Nc3ccc(C#Cc4ccccc4F)cc3[C@@H]21", "no"],
  ["C[C@@H]1CN([C@@H](C)CO)C(=O)c2cc(C#Cc3ccccc3)cnc2O[C@H]1CN(C)C(=O)c1ccccn1", "no"]
]}

Query: Write down the call the test reported for this compound. Item: `COc1cccc(S(=O)(=O)Nc2ccc3c(c2)[C@H]2C[C@H](CC(=O)NCc4ccc(Cl)cc4)O[C@H](CO)[C@H]2O3)c1`
Reply: no

Query: Item: `C[C@H](CO)N1C[C@H](C)[C@H](CN(C)S(=O)(=O)c2ccccc2)Oc2ncc(-c3cccc(C(F)(F)F)c3)cc2C1=O`
Reply: no

Query: Would you mind doing `C[C@@H]1CCCCO[C@H](CN(C)C(=O)Nc2cccc3ccccc23)[C@H](C)CN([C@H](C)CO)C(=O)c2cc(NS(=O)(=O)c3cccs3)ccc2O1` as well?
Reply: no

Query: Then this compound: `C[C@H](CO)N1C[C@H](C)[C@@H](CN(C)Cc2ccc(C(=O)Nc3ccccc3N)cc2)Oc2c(NC(=O)c3ccc(-c4nccs4)cc3)cccc2C1=O`
Reply: no

Query: What about `CCCNC(=O)N(C)C[C@@H]1Oc2ncc(C#Cc3ccccc3F)cc2C(=O)N([C@@H](C)CO)C[C@H]1C` ?
Reply: no

====

Test: NIH3T3 cell viability loss – cherry-pick, single point, cytotoxicity control for T. cruzi proliferation inhibitor project, confirmation (AID 651742);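 further: 0% = median of neutral control wells and 100% = median of positive control wells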
Details: NIH/3T3 viability, CellTiter-Glo ATP luminescence, 90 h; at 8.35 µM; hits give high values
Screen size: about 5,600 compounds; about 780 (14%) were called active. Inconclusive results (about 3%) are left out. Not all results are given here.
hey, just use Yes if measured cytotoxicity (signal decrease) is less than 20%, otherwise No

Completed entries (count: 5):
{"columns": ["Structure as smiles", "Category"],
 "data": [
  ["Cc1cccc(-c2ccc([C@H]3[C@@H](CO)N4CCCCN(Cc5cncnc5)C[C@H]34)cc2)c1", "Yes"],
  ["Cc1cccc(-c2ccc([C@@H]3[C@H](CO)N4CCCCN(C(=O)c5ccc6c(c5)OCO6)C[C@@H]34)cc2)c1", "No"],
  ["COc1ccc(NC(=O)N2CC[C@@H]3[C@@H](CO)N(C)c4ccc(-c5cccc(F)c5)cc4[C@@H]32)cc1", "Yes"],
  ["COc1ccc(NC(=O)Nc2ccc3c(c2)C(=O)N([C@H](C)CO)C[C@@H](C)[C@H](CN(C)Cc2ccc(Cl)c(Cl)c2)OCCCC[C@@H](C)O3)cc1", "Yes"],
  ["CN1c2ccc(-c3ccccc3)cc2[C@@H]2[C@@H](CCN2C(=O)c2ccncc2)[C@@H]1CO", "Yes"]
]}

Query: Please indicate whether the reported cytotoxicity (signal decrease) of `CC(C)(O)C#Cc1ccc([C@@H]2[C@H](CO)N3CCCCN(C(=O)c4cccc(F)c4)C[C@@H]23)cc1` is strictly below 20%.
Reply: Yes

Query: What do we get for `O=S(=O)(c1ccc(F)cc1)N1CCCCN2[C@H](C1)[C@H](c1ccc(C3=CCCCC3)cc1)[C@@H]2CO` ?
Reply: Yes

Query: Also need `C[C@@H]1CN([C@@H](C)CO)C(=O)c2cc(NC(=O)Nc3cccc4ccccc34)ccc2O[C@@H](C)CCCCO[C@H]1CN(C)Cc1ccccc1` , thanks.
Reply: No

Query: Would you kindly repeat that for `C[C@@H]1CN([C@H](C)CO)C(=O)c2cc(NC(=O)Nc3ccc(F)cc3)ccc2O[C@@H](C)CCCCO[C@H]1CN(C)Cc1ccc(Cl)c(Cl)c1` ?
Reply: No

Query: Same thing, different molecule: `O=S(=O)(Cc1ccccc1)N1CCCCN2[C@@H](CO)[C@@H](c3ccc(-c4ccc(F)cc4)cc3)[C@@H]2C1`
Reply: No

Query: // same read-out, input: `CCCC#Cc1ccc([C@@H]2[C@@H](C#N)N(C(=O)C3CCCC3)[C@@H]2CO)cc1`
Reply: Yes

Query: What do you have for `C[C@H]1CN([C@@H](C)CO)C(=O)c2ccccc2-c2ccccc2CO[C@@H]1CN(C)S(=O)(=O)c1ccc(C(F)(F)F)cc1` ?
Reply: No

Query: Now give it for `C[C@@H]1CN([C@H](C)CO)C(=O)c2cccc(NC(=O)c3ccc(-c4nccs4)cc3)c2O[C@@H]1CN(C)C(=O)Nc1ccc(C(F)(F)F)cc1` too.
Reply: No

====

# cytotoxicity (signal decrease) per entry
Experiment: NIH3T3 cell viability loss – cherry-pick, single point, cytotoxicity control for T. cruzi proliferation inhibitor project, confirmation (AID 651742);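 further: 0% = median of neutral control wells and 100% = median of positive control wells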
Settings: NIH/3T3 viability, CellTiter-Glo ATP luminescence, 90 h; at 8.35 µM; hits give high values
Hit rate of the full screen: of about 5,600 compounds, about 780 (14%) were called active. Not shown: some 3% with an inconclusive outcome. Not all results are given here.

Example cases with answers are listed next.
{"columns": ["Structure as smiles", "cytotoxicity (signal decrease)"],
 "data": [
  ["C[C@@H]1CN([C@@H](C)CO)C(=O)Cc2cc(NC(=O)C3CCCCC3)ccc2O[C@@H]1CN(C)Cc1ccc(C(=O)Nc2ccccc2N)cc1", "37.8% (active)"],
  ["C[C@@H]1CN([C@@H](C)CO)S(=O)(=O)c2ccc(C#Cc3ccccc3)cc2O[C@@H]1CN(C)C(=O)Nc1ccccc1", "11.7% (inactive)"],
  ["C[C@@H]1CN([C@@H](C)CO)S(=O)(=O)c2ccc(C#CCN(C)C)cc2O[C@H]1CN(C)C(=O)C1CC1", "19.8% (inactive)"],
  ["CC(C)CC#Cc1ccc2c(c1)O[C@H](CN(C)Cc1ccccc1F)[C@@H](C)CN([C@@H](C)CO)S2(=O)=O", "-3.93% (inactive)"],
  ["C[C@@H]1CN([C@H](C)CO)S(=O)(=O)c2ccc(-c3cccc(C#N)c3)cc2O[C@@H]1CN(C)C(=O)Nc1ccccc1F", "45.7% (active)"]
]}

Query: So what's the measured cytotoxicity (signal decrease) for this one? `OC[C@H]1[C@H](c2ccc(-c3cccc(F)c3)cc2)[C@@H]2CN(Cc3cncnc3)CCCCN12`
Reply: 13.1% (inactive)

Query: Next entry: `C[C@H](CO)N1C[C@H](C)[C@@H](CN(C)C(=O)Nc2cc(F)ccc2F)Oc2cc(C#CC3CC3)ccc2S1(=O)=O`
Reply: -4.87% (inactive)

====

Assay: NIH3T3 cell viability loss – cherry-pick, single point, cytotoxicity control for T. cruzi proliferation inhibitor project, confirmation (AID 651742);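 further: 0% = median of neutral control wells and 100% = median of positive control wells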
Conditions: NIH/3T3 viability, CellTiter-Glo ATP luminescence, 90 h; at 8.35 µM; hits give high values
Screen size: about 5,600 compounds; about 780 (14%) were called active. Inconclusive results (about 3%) are left out. Not all results are given here.
Entries annotated with measured cytotoxicity (signal decrease)
Respond numerically; units are % and should not be typed.

{"columns": ["Structure as smiles", "cytotoxicity (signal decrease) / %"],
 "data": [
  ["C[C@H](CO)N1C[C@H](C)[C@@H](CN(C)S(=O)(=O)c2ccccc2)Oc2ncc(C#Cc3ccccc3F)cc2C1=O", 37.2],
  ["CCCC#Cc1ccc2c(c1)O[C@@H](CN(C)C(=O)c1ccccc1F)[C@H](C)CN([C@H](C)CO)S2(=O)=O", 19.4]
]}

Query: Would you mind telling me what cytotoxicity (signal decrease) value was observed for `CCC(=O)N1CC[C@@H]2[C@@H](CO)N(C)c3ccc(-c4ccc(F)cc4)cc3[C@@H]21` ?
Reply: -22.3

Query: How about `C[C@@H]1CN([C@H](C)CO)C(=O)c2cc(C#Cc3ccccn3)cnc2O[C@H]1CN(C)Cc1ccccc1` ?
Reply: -3.21

Query: Continue with `C[C@@H]1CN([C@@H](C)CO)S(=O)(=O)c2ccc(C#CCC3CCCC3)cc2O[C@H]1CN(C)C(=O)CC1CC1`
Reply: 15

Query: What do you have for `CC(C)NC(=O)Nc1ccc2c(c1)C(=O)N([C@@H](C)CO)C[C@H](C)[C@H](CN(C)S(=O)(=O)c1ccc(Cl)cc1)OCCCC[C@H](C)O2` ?
Reply: -22.1

Query: Same read-out for `Cc1ccc(S(=O)(=O)N(C)C[C@@H]2Oc3ncc(-c4cc5ccccc5o4)cc3C(=O)N([C@H](C)CO)C[C@@H]2C)cc1` ?
Reply: 38.6
